- protocol summary: NCI Yeast Anticancer Drug Screen. Data for the mlh1 rad18 strain (AID 175)
- settings: S. cerevisiae mlh1 rad18 strain growth inhibition; at 50.0 µM; stronger effect = higher value
The panel holds about 79,000 compounds, 15% with a hit somewhere; the sample as a whole holds those more often.
Binary classification by growth inhibition, with 20% as an inclusive lower bound for y; all other cases are n.

{"compound": "COC(=O)C1CC(=O)c2cc(OC)ccc2C1 (configuration not stated)", "assigned label": "n"}
{"compound": "BrC1(C2(Br)N(c3ccccc3)CCN2c2ccccc2)N(c2ccccc2)CCN1c1ccccc1", "assigned label": "n"}
{"compound": "CC(=O)OCN(C)N=Nc1ccc([N+](=O)[O-])cc1", "assigned label": "y"}
{"compound": "Cc1cccc(CN(C)C)c1C=C(c1ccccc1)c1ccccc1", "assigned label": "y"}
{"compound": "O=C1OC(=O)C2C1N=NC2(c1ccccc1)c1ccccc1 (configuration not stated)", "assigned label": "y"}
{"compound": "Cc1cccc([B-]23OCC[N+]2(CNC(=O)c2ccccc2O)CCO3)c1 (configuration not stated)", "assigned label": "n"}
{"compound": "CCOC(=O)N1C2C(c3ccccc3)=NC(C)(C)N2C(c2ccc([N+](=O)[O-])cc2)N1C(=O)OCC (configuration not stated)", "assigned label": "n"}
{"compound": "c1ccc2c(c1)CCc1cc3cc4c(nc3nc1-2)-c1ccccc1CC4", "assigned label": "n"}
{"compound": "O=C(N/C(=C\\c1ccc([N+](=O)[O-])cc1)c1nc2ccccc2[nH]1)c1ccccc1", "assigned label": "y"}
{"compound": "Cc1c(C(=O)O)[nH]c2c(Cl)ccc(C)c2c1=O", "assigned label": "n"}
{"compound": "CN(CC(C)(C)C(O)c1ccccc1)C(=O)c1ccccc1 (configuration not stated)", "assigned label": "n"}
{"compound": "COc1cccc(-c2cc(=O)c3cccnc3[nH]2)c1", "assigned label": "n"}
{"compound": "COC(=O)c1ccc2cc1Nc1c(C#N)cnc(=S)n1-2", "assigned label": "n"}
{"compound": "COc1cc(/C=C2\\SC(=S)N(/C=C(/C#N)C(=O)c3ccc4ccccc4c3)C2=O)cc(OC)c1OC", "assigned label": "y"}
{"compound": "CN(C)c1ccc(/C=C\\C(O)c2ccccc2)cc1 (configuration not stated)", "assigned label": "y"}
{"compound": "O=[N+]([O-])c1nccn1CCCl", "assigned label": "n"}
{"compound": "C=C1C(=O)OC2C1C(OC(=O)/C(=C/C)COC(C)=O)CC1(CO1)C1C(OC(=O)/C(=C/C)CO)C=C(C)C21 (configuration not stated)", "assigned label": "n"}
{"compound": "O=C(Nc1ccccn1)OCCCl", "assigned label": "n"}
{"compound": "COc1ccc2c(c1)OC[C@@H]1c3cc(O)c(OCc4ccccc4)cc3O[C@]21C", "assigned label": "n"}
{"compound": "O=[N+]([O-])c1ccc(N/N=C/c2ccccc2Cl)c([N+](=O)[O-])c1", "assigned label": "y"}
{"compound": "O=N[C@@H]1CCC[C@H](Cl)C1", "assigned label": "n"}
{"compound": "CN=Cc1c(O)ccc2ccccc12.[Cu+2]", "assigned label": "y"}
{"compound": "O=C1OC2=C(CCCC2)C(N2CCCCC2)C12SCCCS2 (configuration not stated)", "assigned label": "n"}
{"compound": "O=C(Cn1c(=O)oc2ccc(C(=O)c3cccc(Cl)c3)cc21)c1ccccc1", "assigned label": "n"}
{"compound": "Cc1cc2c(=O)cc(-c3ccc(C(F)(F)F)cc3)oc2c(C(=O)O)c1C", "assigned label": "n"}
{"compound": "CN(C)CCCN1C=CC(=C2C(=O)c3ccccc3C2=O)C=C1", "assigned label": "n"}
{"compound": "CC(=O)CCCO", "assigned label": "n"}
{"compound": "CC(C)CCOC(=O)C1C(=O)CC(c2ccccc2)C1c1ccccc1 (configuration not stated)", "assigned label": "n"}
{"compound": "OC(c1ccccc1)C(CN1CCCCC1)c1ccccc1 (configuration not stated)", "assigned label": "n"}
{"compound": "CCOC(=O)c1nc2c(n(O)c1=N)CCC/C2=N\\O", "assigned label": "n"}
{"compound": "N=C1/C(=C/c2ccco2)C(=O)N=C2SC=NN12", "assigned label": "y"}
{"compound": "CCOC(=O)c1cc(C)nc(Cl)c1C#N", "assigned label": "n"}
{"compound": "Nc1nc(-c2ccccc2)cc(-c2cc(-c3ccccc3)nc(N)n2)n1", "assigned label": "n"}
{"compound": "O=C(Oc1c(Cl)cc(Cl)cc1Cl)c1ccc([N+](=O)[O-])cc1", "assigned label": "n"}
{"compound": "O=C1C2C3CCC(C3)C2N1Cc1ccccc1 (configuration not stated)", "assigned label": "n"}
{"compound": "COc1ccc(-c2cc(-c3ccc(OC)cc3)cc(-c3ccc(OC)cc3)c2)cc1", "assigned label": "n"}
{"compound": "CC1=NC(=Cc2ccccc2O)C(=O)N1n1c(-c2ccccc2)nc2ccccc2c1=O", "assigned label": "y"}
{"compound": "BrCCCOc1ccccc1Br", "assigned label": "n"}
{"compound": "CSc1nc2nc[nH]c2c(=O)[nH]1", "assigned label": "n"}
{"compound": "CC(Oc1ccccc1)C(=O)NNC(=O)OC(C)(C)C (configuration not stated)", "assigned label": "n"}
{"compound": "C=C(CCC(Cl)C(O)CO)[Si](C)(C)C (configuration not stated)", "assigned label": "y"}
{"compound": "COC(=O)c1ccccc1N(C(=O)c1ccccc1)c1ccccc1C", "assigned label": "n"}
{"compound": "COc1cccc(N2C(=O)[C@H]3[C@H]4CC(C(C)(C)C)CC[C@H]4c4c([nH]c5ccccc45)[C@H]3C2=O)c1 (some centres not stated)", "assigned label": "n"}
{"compound": "CCNC(=O)NCN1CCOCC1", "assigned label": "n"}
{"compound": "COc1ccc(C(=O)N/N=C/c2cccc(OC)c2OC)cc1", "assigned label": "n"}
{"compound": "CN(C)N=Nc1ccc(Cl)cc1C(=O)O", "assigned label": "y"}
{"compound": "CSc1nc2ccc(N=Cc3ccccc3O)cc2s1", "assigned label": "n"}

* * *

- protocol summary: NCI Yeast Anticancer Drug Screen. Data for the rad50 strain (AID 155);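 also: 0% = growth of vehicle-only cultures of the same strain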
- settings: S. cerevisiae rad50 strain growth inhibition; at 50.0 µM; stronger effect = higher value
About 79,000 compounds went through this panel and 15% of them were active in at least one assay; those are over-represented in the sample as a whole.
Reported growth inhibition values follow for various molecules
test readout: growth inhibition (%)

{"molecule": "CCCC(CC)(CC)CO", "measured number": -21.6}
{"molecule": "CSc1nnc2c3ccccc3ccn12", "measured number": 4.9}
{"molecule": "O=C(COc1ccccc1)Nc1cccc(C(=O)O)c1", "measured number": 1.2}
{"molecule": "COC(C(O)C(O)C(O)C(O)CO)n1cnc2cncnc21 (configuration not stated)", "measured number": 4.05}
{"molecule": "CC(=O)NC1CON(C(C)=O)C1=O (configuration not stated)", "measured number": 2.75}
{"molecule": "Nc1ccc(Cl)c(N)c1", "measured number": 9.1}
{"molecule": "O=P(c1ccccc1)(c1ccccc1)c1ccccc1OCCOCCOc1ccccc1P(=O)(c1ccccc1)c1ccccc1", "measured number": -7.2}

* * *

- protocol summary: NCI Yeast Anticancer Drug Screen. Data for the mlh1 rad18 strain (AID 175)
- settings: S. cerevisiae mlh1 rad18 strain growth inhibition; at 50.0 µM; stronger effect = higher value
About 79,000 compounds went through this panel and 15% of them were active in at least one assay; those are over-represented in the sample as a whole.

{"molecule": "O=C1C2C3C=CC(C3)C2C(=O)N1c1ncc([N+](=O)[O-])s1 (configuration not stated)", "growth inhibition, %": 12.3}
{"molecule": "O=C(Nc1ccc(C(=O)CCl)cc1)Nc1ccc(C(=O)CCl)cc1", "growth inhibition, %": 14.6}
{"molecule": "COC1=CC(=C(c2ccc(O)c(OC)c2)c2ccc(O)c(OC)c2)C=CC1=O", "growth inhibition, %": -31.9}
{"molecule": "O=c1ccc2cc3c(cc2[nH]1)OCO3", "growth inhibition, %": 7.05}
{"molecule": "O=[N+]([O-])c1ccc(NC(CO)C(O)C(O)C(O)CO)c([N+](=O)[O-])c1 (configuration not stated)", "growth inhibition, %": -7.4}
{"molecule": "O=C(O)CN1C(=O)/C(=C\\c2ccc3ccccc3n2)SC1=S", "growth inhibition, %": 20.6}
{"molecule": "CC1CCC(=O)CN1Cc1ccccc1 (configuration not stated)", "growth inhibition, %": 4.85}
{"molecule": "NCCCCCC(CCN)SCC1OC(n2cnc3c(N)ncnc32)C(O)C1O (configuration not stated)", "growth inhibition, %": 25.9}
{"molecule": "COc1cc(Cn2c(=S)ss/c2=N\\C(=S)N(C)C)cc(OC)c1OC", "growth inhibition, %": -12}
{"molecule": "COc1cccc(CCC(=O)O)c1", "growth inhibition, %": 2.7}
{"molecule": "CCCCCCC(=O)N1CC(C)OC(C)C1 (configuration not stated)", "growth inhibition, %": 4.8}
{"molecule": "CC/C=C\\CCOC(=O)C1OC1c1ccccc1 (configuration not stated)", "growth inhibition, %": 1.5}
